System: Blood mononuclear cells
Assay: Monocyte chemotaxis assay in modified Boyden chamber
Type: cell-based, human
Conditions: concentration [A] at which the maximum chemotactic index occurs
Procedure: Activity of Compounds (I) in Monocyte Chemotaxis Assays Blood mononuclear cells were isolated from heparinized blood of human volunteers by Ficoll sedimentation. Chemotaxis was measured in a modified Boyden chamber using a Millipore […] that divided the upper and lower compartments. Mononuclear cells (0.5×10^6) in Krebs-Ringer phosphate (KRP) buffer were placed into the upper wells. […]
result.type: −log[A] (concentration of maximum chemotactic index)
// no unit, no text: just the number

Qu. Field request: −log[A] (concentration of maximum chemotactic index) | item: CC(O[C@@H]1O[C@H](CO[C@@H]2O[C@H](CO)[C@@H](O)[C@H](O)[C@H]2O)[C@@H](O)[C@H](O)[C@H]1O)c1ccccc1 (stereo partly drawn)
Ans. 8

Qu. Try this molecule too: `OC[C@H]1O[C@@H](OC[C@H]2O[C@@H](OCc3ccccc3)[C@H](O)[C@@H](O)[C@@H]2O)[C@H](O)[C@@H](O)[C@@H]1O`
Ans. 8

Qu. Try this molecule too: `COc1ccc(CO[C@@H]2O[C@H](CO[C@@H]3O[C@H](CO)[C@@H](O)[C@H](O)[C@H]3O)[C@@H](O)[C@H](O)[C@H]2O)cc1`
Ans. 10

Qu. Try this molecule too: C#CC(O[C@@H]1O[C@H](CO[C@@H]2O[C@H](CO)[C@@H](O)[C@H](O)[C@H]2O)[C@@H](O)[C@H](O)[C@H]1O)c1ccccc1 (stereo partly drawn)
Ans. 6

Qu. Try this molecule too: CCC(O[C@@H]1O[C@H](CO[C@@H]2O[C@H](CO)[C@@H](O)[C@H](O)[C@H]2O)[C@@H](O)[C@H](O)[C@H]1O)c1ccccc1 (mixture of isomers)
Ans. 6

Qu. Try this molecule too: `N#C[C@H](O[C@@H]1O[C@H](CO[C@@H]2O[C@H](CO)[C@@H](O)[C@H](O)[C@H]2O)[C@@H](O)[C@H](O)[C@H]1O)c1ccccc1`
Ans. 10

Qu. Try this molecule too: CC(C)(C)C(O[C@@H]1O[C@H](CO[C@@H]2O[C@H](CO)[C@@H](O)[C@H](O)[C@H]2O)[C@@H](O)[C@H](O)[C@H]1O)c1ccccc1 (mixture of isomers)
Ans. 9

Qu. Try this molecule too: `COc1ccc(CO[C@@H]2O[C@H](CO[C@@H]3O[C@H](CO)[C@@H](O)[C@H](O)[C@H]3O)[C@@H](O)[C@H](O)[C@H]2O)c(OC)c1`
Ans. 10

Qu. Try this molecule too: `OC[C@H]1O[C@@H](OC[C@H]2O[C@@H](OCCc3ccccc3)[C@H](O)[C@@H](O)[C@@H]2O)[C@H](O)[C@@H](O)[C@@H]1O`
Ans. 9

Qu. Try this molecule too: `NC(=O)[C@H](O[C@@H]1O[C@H](CO[C@@H]2O[C@H](CO)[C@@H](O)[C@H](O)[C@H]2O)[C@@H](O)[C@H](O)[C@H]1O)c1ccccc1`
Ans. 7

Qu. Try this molecule too: `O=C(O)[C@H](O[C@@H]1O[C@H](CO[C@@H]2O[C@H](CO)[C@@H](O)[C@H](O)[C@H]2O)[C@@H](O)[C@H](O)[C@H]1O)c1ccccc1`
Ans. 9

Qu. Try this molecule too: `OC[C@H]1O[C@@H](OC[C@H]2O[C@@H](OCc3ccccc3Cl)[C@H](O)[C@@H](O)[C@@H]2O)[C@H](O)[C@@H](O)[C@@H]1O`
Ans. 10
